assayed-system: T1, cynomolgus monkey CD38 expressed on the cell surface (cynomolgus monkey, UniProt Q5VAN0 1-301)
T1 construct: whole, on cells; also called cCD38-expressing cells
assay-text: flow cytometry on preB::300.19 cells, apparent KD
Procedure: The recombinant cell line was described by J. Deckket et al. 2014 Clin Cancer Res 20:4574-4583. […] Antibody binding was evaluated after centrifugation and resuspension of cells by adding 200 μL/well PBS 1% BSA and read using Guava® easvCyte™ 8HT Flow Cytometry System. Apparent KD and EC50 values were estimated using BIOST@T-BINDING and BIOST@T-SPEED software, respectively.
pKd reference
Schema: pKd number; meaning minus log10 of the concentration expressed in molar units.

Solved cases below.
binder | pKd
mAb2 (antibody, human IgG1, kappa, V domains shown, also called antiCD38_C2-CD38-1_VH1-VL1; CD38VH1) VH: QVQLVQSGAEVVKPGASVKVSCKASGYTFTSYAMHWVKEAPGQRLEWIGYIYPGQGGTNYNQKFQGRATLTADTSASTAYMELSSLRSEDTAVYFCARTGGLRRAYFTYWGQGTLVTVSS VL: DIVLTQSPATLSLSPGERATISCRASQSVSSYGQGFMHWYQQKPGQPPRLLIYGASSRATGIPARFSGSGSGTDFTLTISPLEPEDFAVYYCQQNKEDPWTFGGGTKLEIKR | 9.12
mAb4 (antibody, human IgG1, kappa, V domains shown, also called antiCD38_C2-CD38-1_VH5-VL3) VH: QVQLVQSGAEVVKSGASVKVSCKASGYTFTSFNMHWVKEAPGQGLEWIGYIYPGNGGTNYNQKFQGRATLTADTSASTAYMEISSLRSEDTAVYFCARTGGLRRAYFTYWGQGTLVTVSS VL: DIVLTQSPATLSLSPGERATISCRASESVDSYGNGFMHWYQQKPGQPPRLLIYLASSRATGIPARFSGSGSGTDFTLTISPLEPEDFAVYYCQQNKEDPWTFGGGTKLEIKR | 8.94
mAb1 (antibody, human IgG1, kappa, V domains shown, also called antiCD38_C2-CD38-1) VH: QVQLQQSGAELVRSGASVKMSCKASGYTFTSFNMHWVKETPGQGLEWIGYIYPGNGGTNYNQKFKGKATLTADTSSSTAYMQISSLTSEDSAVYFCARTGGLRRAYFTYWGQGTLVTVSS VL: DIVLTQSPASLAVSLGQRATISCRASESVDSYGNGFMHWYQQKPGQPPKLLIYLASNLESGVPARFSGSGSRTDFTLTIDPVEADDAATYYCQQNKEDPWTFGGGTKLEIKR | 9.66

With those in mind, consider the next binder.
Record summary for mAb3 (antibody, human IgG1, kappa, V domains shown, also called antiCD38_C2-CD38-1_VH3-VL3) VH: QVQLVQSGAEVVKPGASVKVSCKASGYTFTSFNMHWVKEAPGQRLEWIGYIYPGNGGTNYNQKFQGRATLTADTSASTAYMELSSLRSEDTAVYFCARTGGLRRAYFTYWGQGTLVTVSS VL: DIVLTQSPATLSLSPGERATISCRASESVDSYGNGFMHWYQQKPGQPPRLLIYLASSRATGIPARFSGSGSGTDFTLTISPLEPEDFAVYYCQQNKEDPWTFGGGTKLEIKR : reported pKd = 8.88

From: patent US20220041746A1
